The origin of these recorded values is the supplement of paper PMC11061612.

System: RCC-JW (Kidney Carcinoma);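 note: after 72 h of two-drug dosing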
test.details: Bliss excess, mean over the matrix (fraction); higher = more synergy
outcome.measure: Bliss excess
Format: numeric value only, no unit, no commentary.

CC1(C)CCC(CN2CCN(c3ccc(C(=O)NS(=O)(=O)c4ccc(NCC5CCOCC5)c([N+](=O)[O-])c4)c(Oc4cnc5[nH]ccc5c4)c3)CC2)=C(c2ccc(Cl)cc2)C1 [Venetoclax] + CCN(CCO)CCCOc1ccc2c(Nc3cc(CC(=O)Nc4cccc(F)c4)[nH]n3)ncnc2c1 [AZD2811] (first compound max 1 µM, 7x7, partner max 1 µM)    -0.0068
CC1(C)CCC(CN2CCN(c3ccc(C(=O)NS(=O)(=O)c4ccc(NCC5CCOCC5)c([N+](=O)[O-])c4)c(Oc4cnc5[nH]ccc5c4)c3)CC2)=C(c2ccc(Cl)cc2)C1 [Venetoclax] + C[C@@H]1COCCN1C2=NC(=NC(=C2)C3(CC3)[S@](=N)(=O)C)C4=C5C=CNC5=NC=C4 [AZD6738] (first compound max 1 µM, 7x7, partner max 10 µM)    -0.0484
Cc1cc2ncnn2cc1Nc1ncc2c(n1)n(C1CCOCC1)c(=O)n2C [AZD7648] + CCN(CCO)CCCOc1ccc2c(Nc3cc(CC(=O)Nc4cccc(F)c4)[nH]n3)ncnc2c1 [AZD2811] (first compound max 10 µM, 7x7, partner max 1 µM)    -0.011
COc1cccc(OCCCN)c1-c1cc(Nc2cnc(C#N)cn2)n[nH]1 [Prexasertib] + O=C(c1cc(Cc2n[nH]c(=O)c3ccccc23)ccc1F)N1CCN(C(=O)C2CC2)CC1 [Olaparib] (first compound max 1 µM, 7x7, partner max 10 µM)    -0.0896
CN(CCO)CC[C@H](CSc1ccccc1)Nc1ccc(S(=O)(=O)NC(=O)c2ccc(N3CCC([C@@H](O)c4ccccc4-c4ccc(Cl)cc4)CC3)cc2)cc1S(=O)(=O)C(F)(F)F [AZD4320] + CCN(CCO)CCCOc1ccc2c(Nc3cc(CC(=O)Nc4cccc(F)c4)[nH]n3)ncnc2c1 [AZD2811] (first compound max 1 µM, 7x7, partner max 1 µM)    -0.0023

# return recorded Bliss excess for input CN(C)CCCOc1ccc(-c2ccc3ncc4c(c3c2)n(C2CCOCC2)c(=O)n4C)cn1 [AZD0156] + C=CCn1c(=O)c2cnc(Nc3ccc(N4CCN(C)CC4)cc3)nc2n1-c1cccc(C(C)(C)O)n1 [AZD1775] (first compound max 1 µM, partner max 1 µM)
-0.061

# return recorded Bliss excess for input CS(=O)(=O)CCNCc1ccc(-c2ccc3ncnc(Nc4ccc(OCc5cccc(F)c5)c(Cl)c4)c3c2)o1 [Lapatinib] + Cn1cnc2c(F)c(Nc3ccc(Br)cc3Cl)c(C(=O)NOCCO)cc21 [Selumetinib] (first compound max 10 µM, 7x7, partner max 10 µM)
-0.0525
